conditions: 340 K; 101.33 kPa; Crystal; Small sample (50 mg) DSC
molar entropy by entry:
Quantity: molar entropy (J/K/mol)

- OC[C@@H](O)[C@@H](O)CO: 188.74
- O[C@H]1[C@H](O)[C@@H](O)[C@H](O)[C@@H](O)[C@H]1O [cis-1,2,3,5-trans-4,6-cyclohexanehexol]: 229.11
- OC[C@@H](O)[C@H](O)[C@@H](O)CO: 227.9
- OC[C@@H](O)[C@@H](O)[C@H](O)[C@H](O)CO: 259.67
- OC[C@@H](O)C(O)[C@H](O)CO: 228.51
- OC[C@H](O)C(O)[C@@H](O)CO [L-(-)-arabitol]: 231.6
